# study-target: Retinoic acid receptor alpha (Homo sapiens)
# Sequence (P10276 whole entry): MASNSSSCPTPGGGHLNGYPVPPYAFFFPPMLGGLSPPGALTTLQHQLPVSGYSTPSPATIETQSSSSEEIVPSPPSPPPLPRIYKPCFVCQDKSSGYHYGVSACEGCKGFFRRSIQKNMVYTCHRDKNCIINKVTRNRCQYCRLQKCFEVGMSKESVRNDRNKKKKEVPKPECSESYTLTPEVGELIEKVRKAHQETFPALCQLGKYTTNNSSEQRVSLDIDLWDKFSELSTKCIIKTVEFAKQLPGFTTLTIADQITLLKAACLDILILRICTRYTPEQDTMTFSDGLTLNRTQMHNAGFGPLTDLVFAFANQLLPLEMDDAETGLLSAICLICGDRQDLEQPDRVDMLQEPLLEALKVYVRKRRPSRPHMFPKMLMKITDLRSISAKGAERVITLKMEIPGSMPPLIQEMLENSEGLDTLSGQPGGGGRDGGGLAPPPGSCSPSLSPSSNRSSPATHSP
# measurement-notes: Transcriptional activation of Retinoic acid receptor RAR alpha;NA=not active
# Set-up: species or system Cercopithecidae
measured-metric: EC50

Study these solved cases before continuing.
compound: Cc1cc2c(cc1Sc1ccc(C(=O)O)cn1)C(C)(C)CCC2(C)C
study-target: Retinoic acid receptor alpha (Homo sapiens)
EC50: Not Active
//
compound: Cc1cc2c(cc1S(=O)(=O)c1ccc(C(=O)O)cc1)C(C)(C)CCC2(C)C
study-target: Retinoic acid receptor alpha (Homo sapiens)
EC50: Not Active
//
compound: Cc1cc2c(cc1Sc1ncc(C(=O)O)s1)C(C)(C)CCC2(C)C
study-target: Retinoic acid receptor alpha (Homo sapiens)
EC50: Not Active
//
compound: Cc1cc2c(cc1[S+]([O-])c1ccc(C(=O)O)cc1)C(C)(C)CCC2(C)C (stereo unspecified)
study-target: Retinoic acid receptor alpha (Homo sapiens)
EC50: Not Active
//
compound: Cc1cc2c(cc1Sc1ccc(C(=O)O)cc1)C(C)(C)CCC2(C)C
study-target: Retinoic acid receptor alpha (Homo sapiens)
EC50: Not Active

Consider now this further compound.
Tell me the measured EC50 of CC1(C)CCC(C)(C)c2cc(Sc3ccc(C(=O)O)cc3)ccc21 , please.
Not Active
